This collection of values is drawn from the supplement of paper PMC13380429.

We begin with a simple list: items and their reported drug sensitivity score.
test system: Caco-2; test: drug sensitivity score (DSS) for viability; higher = more toxic; extreme values may be limits of the assay; conditions: 72 h
Readout type: drug sensitivity score

# Query smiles, Observed value
records = [
    ("CN(C)CCCOc1nn(Cc2ccccc2)c2ccccc12", 0),
    ("CCCS(=O)(=O)Nc1ccc(F)c(C(=O)c2c[nH]c3ncc(Cl)cc23)c1F", 1.7),
    ("COC(=O)[C@@H]1CC2=CC(=O)CC[C@]2(C)[C@@]23O[C@@H]2C[C@@]2(C)[C@@H](CC[C@@]24CCC(=O)O4)[C@H]13", 0),
    ("Cc1ncc(-c2csc(N=C(N)N)n2)[nH]1", 0),
    ("Cc1cnc(-c2cc(N3CCN(C(=O)CCS(C)(=O)=O)CC3)ncc2Cl)c(C)c1", 0),
]

---

system: HepG2; experiment: cell viability relative to DMSO; higher = less toxic; conditions: 72 h; 1000 nM
Counter-ions that a name gives are not always drawn.

# Molecule, Assay target, cell viability
data = [
    ("O=C(OCCN1CCOCC1)c1cccnc1Nc1cccc(C(F)(F)F)c1 [morniflumate]", "HepG2", "94.7%"),
    ("Cc1cnc(-c2cc(N3CCN(C(=O)CCS(C)(=O)=O)CC3)ncc2Cl)c(C)c1", "HepG2", "101%"),
    ("O=C(O)CCNc1cc(N2CCc3ccccc3CC2)nc(-c2ccccn2)n1", "HepG2", "101%"),
    ("C=C(C)[C@@H]1CC=C(CO)CC1", "HepG2", "94.5%"),
    ("C[C@H](N)Cc1c[nH]cn1 [alpha-methylhistamine-dihydrobromide-(S)-(+)]", "HepG2", "100%"),
]

---

test system: HepG2; experiment: relative viability EC50 (midpoint between 100% and the lowest measured viability); higher = less toxic; conditions: 72 h
Readout type: relative viability EC50

# Compound, Readout type, Observed value
rows = [
    ("CC(CN(C)C)CN1c2ccccc2CCc2ccccc21 (centres undefined)", "relative viability EC50", "> 10 µM"),
    ("COC(=O)c1cc(OC)c2c(c1-c1c(CO)cc(OC)c3c1OCO3)OCO2", "relative viability EC50", "> 10 µM"),
    ("CC[C@H](NC(=O)c1c(C)c(-c2ccccc2)nc2ccccc12)c1ccccc1", "relative viability EC50", "> 10 µM"),
    ("c1ccc2oc(C3=NCCN3)cc2c1", "relative viability EC50", "> 10 µM"),
    ("COc1ccccc1N1CCN(CCN2C(=O)CC3(CCCC3)CC2=O)CC1", "relative viability EC50", "> 10 µM"),
    ("Cc1c(F)cccc1NC(=O)Nc1ccc(Cl)c(S(=O)(=O)[C@H]2CCCNC2)c1O", "relative viability EC50", "> 10 µM"),
    ("C[C@]12CCC(=O)C=C1C=C[C@@H]1[C@@H]2CC[C@@]2(C)[C@H]1CC[C@@]2(O)CCC(=O)O [potassium-canrenoate]", "relative viability EC50", "> 10 µM"),
    ("COc1ccc(S(=O)(=O)N2CCCN(S(=O)(=O)c3ccc(OC)c(OC)c3)CC2)cc1OC", "relative viability EC50", "> 10 µM"),
    ("Cn1c(=O)cnn(CCCCN2CCN(c3ncccn3)CC2)c1=O", "relative viability EC50", "> 10 µM"),
]
